experiment: in vivo; settings: mouse, ip, DDY mice, single dose, i.p., dissolved in dimethylsulfoxide, day 21, read-out: LD50 i.p.
Items are presented alongside their recorded LD50 at 504 h.

>>> recorded_value("COc1cc(O)c(C(=O)/C=C/c2ccc(OCc3ccccc3)c(OC)c2)c(OC)c1")
"> 500 mg/kg"
>>> recorded_value("CCCCCCCCCCCCCCCCCC(=O)Oc1cc(OC)cc(OC)c1C(=O)/C=C/c1ccc(OC)cc1")
"> 500 mg/kg"
>>> recorded_value("C=CCOc1ccc(/C=C/C(=O)c2c(OC)cc(OC)cc2OC(=O)CC)cc1")
"> 500 mg/kg"
>>> recorded_value("COc1cc(O)c(C(=O)/C=C/c2ccccc2)c(OC)c1 [2'-hydroxy-4',6'-dimethoxychalcone]")
"> 1000 mg/kg"

[Q] What value of LD50 at 504 h has been recorded for this entry: COc1ccc(/C=C/C(=O)c2ccc(OC)cc2O)cc1 [2'-hydroxy-4,4'-dimethoxychalcone]
[A] > 1000 mg/kg

[Q] Same read-out for COc1ccc(/C=C/C(=O)c2c(O)cc(OC)cc2OC)cc1 [2'-hydroxy-4,4',6'-trimethoxychalcone] ?
[A] > 1000 mg/kg

[Q] Same read-out for CCOc1cc(OC)cc(O)c1C(=O)C=Cc1ccc(C)o1 ?
[A] > 500 mg/kg

[Q] Same read-out for CCC(=O)Oc1cc(OC)cc(OC)c1C(=O)/C=C/c1ccccc1 ?
[A] > 1000 mg/kg

[Q] Same read-out for COc1cc(O)c(C(=O)C=Cc2sccc2C)c(OC)c1 ?
[A] > 500 mg/kg

[Q] Same read-out for CCC(=O)Oc1cc(OC)cc(OC)c1C(=O)C=Cc1cccn1C ?
[A] > 500 mg/kg

[Q] Same read-out for COc1cc(/C=C/C(=O)c2c(O)cc(OC)cc2OC)cc(OC)c1 ?
[A] > 500 mg/kg

[Q] Same read-out for CCC(=O)Oc1cc(OC)cc(OC)c1C(=O)/C=C/c1ccc(C)cc1 ?
[A] > 1000 mg/kg

[Q] Same read-out for COc1cc(O)c(C(=O)C=Cc2cccs2)c(OC)c1 ?
[A] > 1000 mg/kg

[Q] Same read-out for COc1cc(O)c(C(=O)/C=C/c2ccc(Cl)cc2)c(OC)c1 ?
[A] > 1000 mg/kg

[Q] Same read-out for COc1cc(O)c(C(=O)C=Cc2ccco2)c(OC)c1 ?
[A] > 500 mg/kg

[Q] Same read-out for COc1cccc(/C=C/C(=O)c2c(O)cc(OC)cc2OC)c1 [2'-hydroxy-3,4',6'-trimethoxychalcone] ?
[A] > 500 mg/kg

[Q] Same read-out for COc1ccc(/C=C/C(=O)c2c(OC)cc(OC)cc2OC(=O)C(C)(C)C)cc1 ?
[A] > 1000 mg/kg

[Q] Same read-out for COc1ccc(/C=C/C(=O)c2c(OC)cc(OC)cc2OC(=O)[C@H](C)N)cc1 ?
[A] > 180 mg/kg

[Q] Same read-out for COc1cc(O)c(C(=O)/C=C/c2cccc(OC)c2OC)c(OC)c1 ?
[A] > 500 mg/kg

[Q] Same read-out for CCC(=O)Oc1cc(OC)cc(OC)c1C(=O)/C=C/c1ccc(Cl)cc1 ?
[A] > 1000 mg/kg

[Q] Same read-out for CCOc1ccc(/C=C/C(=O)c2c(O)cc(OC)cc2OC)cc1 ?
[A] > 1000 mg/kg

Origin of measurements: patent US4605674A
